Would you mind telling me the reported Solubility of each entry?
# assay.name: Solubility in methylene chloride (standard method for ascertaining lipophilicity)
# Assay type: physicochemical
# Source text: Throughout the present application many CPT compounds have been defined with a substituent X as shown in structure I or II where X is defined and many substituents are shown. […]
Could you give me the number in µg/mL? Just the number is fine.

Tell me the measured Solubility of CC[C@@]1(O)C(=O)OCc2c1cc1n(c2=O)Cc2cc3cc(N)ccc3nc2-1 [Example 10-Amino-CPT, 10-Aminocamptothecin, reference compound] , please.
200

Entry to check: CC[C@@]1(O)C(=O)OCc2c1cc1n(c2=O)Cc2c-1nc1cc3c(cc1c2-c1ccc(Cl)cc1)OCO3
6300

Further, for CC[C@@]1(O)C(=O)OCc2c1cc1n(c2=O)Cc2cc3cc(OC)ccc3nc2-1 [10-Methoxy-CPT, reference compound] ?
3000

====

Record form. Attribute: Solubility. Fill in for each entry.
# assay.name: Solubility in methylene chloride (standard method for ascertaining lipophilicity)
# Assay type: physicochemical
Use µg/mL as the unit, but write only the number.

What does the record list as Solubility for CCC1(O)C(=O)OCc2c1cc1n(c2=O)Cc2cc3c([N+](=O)[O-])c4c(cc3nc2-1)OCO4 (stereo not shown) [9-Nitro-10,11-MD-CPT, reference compound] ?
250

What about this molecule? CCCCc1c2c(nc3cc4c(cc13)OCCO4)-c1cc3c(c(=O)n1C2)COC(=O)C3(O)CC (stereo not shown)
7000

Note, next up: CC[C@@]1(O)C(=O)OCc2c1cc1n(c2=O)Cc2c-1nc1cc3c(cc1c2-c1ccc(F)cc1)OCO3
2550

Here is the next molecule: CCC(C)c1c2c(nc3ccccc13)-c1cc3c(c(=O)n1C2)COC(=O)C3(O)CC (stereo not shown) [7-(sec)Butyl-CPT]
33000

Can you check CC[C@@]1(O)C(=O)OCc2c1cc1n(c2=O)Cc2c-1nc1cc3c(cc1c2-c1ccc(C)cc1)OCO3 [7-p-Tolyl-10,11-MD-CPT, 7-p-Tolyl-10,11-MD-20(S)-Camptothecin] next?
4600

Repeat with CCCCc1c2c(nc3ccc(OC)cc13)-c1cc3c(c(=O)n1C2)COC(=O)C3(O)CC (stereo not shown)
2000

Likewise for CCCCc1c2c(nc3ccc(N)cc13)-c1cc3c(c(=O)n1C2)COC(=O)[C@]3(O)CC [7-Butyl-10-Amino-CPT, 7-n-Butyl-10-Amino-20(S)-Camptothecin] ?
145000

Moving on to the next molecule: CCC1(O)C(=O)OCc2c1cc1n(c2=O)Cc2cc3c(C)cccc3nc2-1 (stereo not shown) [Example 9-Methyl-CPT, 9-Methyl-CPT, reference compound]
100

// repeat for CCCCc1c2c(nc3cc4c(cc13)OCO4)-c1cc3c(c(=O)n1C2)COC(=O)[C@]3(O)CC and report
8500

# iterate: CCC1(O)C(=O)OCc2c1cc1n(c2=O)Cc2cc3cc4c(cc3nc2-1)OCCO4 (stereo not shown) [10,11-ED-CPT, reference compound]
200

Further, for CC[C@@]1(O)C(=O)OCc2c1cc1n(c2=O)Cc2c-1nc1cc3c(cc1c2Cc1ccccc1)OCO3 [7-Benzyl-10,11-MD-CPT, 7-Benzyl-10,11-MD-20(S)-Camptothecin] ?
1800

Follow-up item: CCCCc1c2c(nc3ccccc13)-c1cc3c(c(=O)n1C2)COC(=O)C3(O)CC (stereo not shown)
20000
